Entry source: patent US11434195B2

Test system: CA1 cancer stem cell-derived carcinoid bodies ('carcinospheres')
Assay: Carcinoid sphere model of tumor-initiating glioblastoma stem cells
Format: cell-based
Settings: Homo sapiens, read-out: IC50, inhibition of brain tumor-initiating cancer stem cells
From the text: Human glioblastoma cell lines CA1 (also sometimes referred to as BT73) and L1 are cells are available from the Florida Center for Brain Tumor Research University of Florida Biorepository. […] The number and size of ‘carcinoid’ spheres are quantitated by inverted phase contrast microscopy, and spheres collected for analysis for determination of survival and growth/proliferation. […]
Structures can show the parent of a compound that is named as a salt.
MEASURED METRIC: IC50
A bare number is not enough; add the unit after it.

Ask | // Input: CCCCCCCC/C=C\CCCCCCCCOCC(O)CNC(C)C (stereo not shown) [AIP2, hydrochloride] . Output its IC50 only.
Reply | 1100 nM

---

System: CA1 cancer stem cell-derived carcinoid bodies ('carcinospheres')
Assay: Carcinoid sphere model of tumor-initiating glioblastoma stem cells
Format: cell-based
Conditions: Homo sapiens, read-out: IC50, formation and growth of CA1 cancer stem cell-derived carcinoid bodies
Structures can show the parent of a compound that is named as a salt.
MEASURED METRIC: pIC50
# pIC50: negative log10 of molar concentration; output just the value

Ask | GET pIC50 where system = CA1 cancer stem cell-derived carcinoid bodies ('carcinospheres') and item = CCCCCCCC/C=C\CCCCCCCCOCC(O)CNC(C)C (stereo not shown) [AIP2, hydrochloride]
Reply | 5.96
